Origin of the recorded values: paper PMC9340783

Overview of recorded pEC50 for various binders
- TARGET: T1, cynoGITR ECD hFc (Macaca fascicularis)
- T1 construct: cynomolgus GITR, extracellular domain, Gln20-Glu155, NCBI XP_005545180.1; also called cynoGITR protein; cGITR; source: FreeStyle 293F, transiently transfected, purified by protein A
- T1 chain: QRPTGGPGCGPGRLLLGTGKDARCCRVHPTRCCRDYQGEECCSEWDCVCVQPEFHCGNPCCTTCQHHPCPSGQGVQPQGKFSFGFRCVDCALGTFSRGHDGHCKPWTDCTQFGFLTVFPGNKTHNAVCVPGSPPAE
- ASSAY_PROTOCOL: ELISA; indirect ELISA; antigen hFc fusion protein coated on 96-well plates (1 μg·mL^−1 overnight at 4 °C in Fig. 3B), antibody added, detected with anti-rat IgG/hIgG-peroxidase antibody
- CONDITION_DETAILS: both partners purified
pEC50: −log10 of the molar value.

# BINDER, pEC50
rows = [
    ("Tab9H6v3 (antibody, V domains shown, heavy chain variable region of clone 9H6v3 (AMGEN INC.); light chain variable region of clone 9H6v3 (AMGEN INC.)) VH: QVQLVESGGGVVQPGRSLRLSCVASGFTFSSYGMHWIRQAPGKGLEWVAVIWYEGSNKYYAESVKGRFTISRDNSKNTLYLQMNSLRAEDTAVYYCARGGRLGKDYYSGMDVWGQGTTVTVSS VL: DIQMTQSPSSLSASVGDRVTITCRASQGIRNDLGWYQQKPGKAPKRLIYATSSLQSGVPSRFSGSGSGTEFTLTISSLQPEDFATYYCLQHNTYPWTFGQGTKVEIK", 10.05),
    ("hab070 (antibody, V domains shown, 3503‐hab070‐VH; 3503‐hab070‐Vk; Whole antibody, human IgG1 heavy chain constant region, human kappa light chain constant region; source: FreeStyle 293F, transiently co-transfected, purified from culture supernatant) VH: QVQLVESGGGVVQPGRSLRLSCAASGFTFSSYGMHWVRQAPGKGLEWVAVIWYETSNKFYVDSVKGRFTISRDNSKNTLYLQMNSLRAEDTAVYYCARYGASSGWYWYFDLWGRGTLVTVSS VL: DIQLTQSPSFLSASVGDRVTITCRASQGISSFLAWYQQKPGKAPKLLIYAASTLQSGVPSRFSGSGSGTEFTLTISSLQPEDFATYCCQQLNSYPFTFGQGTKLEIK", 9.97),
    ("mAb064 (antibody, V domains shown, as the VH of m13; as the VL of m13; Human-murine chimeric antibody from H2L2 mice: human variable regions, rat constant regions; source: hybridoma cell culture supernatant, purified (Protein A)) VH: QVQLVESGGGVVQPGRSLRLSCAASGFTFSSYGMHWVRQAPGKGLEWVAVIWYETSNKYYADSVKGRFTISRDNSKNTLYLQMNNLRAEDTAVYYCARYGGNSGWYWYFDLWGRGTLVTVSS VL: DIQLTQSPSFLSASVGDRVTITCRASQGISSFLAWYQQKPGTAPKLLIYAASTLQSGVPSRFSGSGSGTEFTLTISSLQPEDFATYCCQQLNSYPFTFGQGTKLEIK", 10.46),
]
